# Test system: UACC-62 melanoma
# protocol_text: NCI tumour cell line growth inhibition, 48 h
Below: a set of entries, each annotated with reported GI50.

Completed entries (count: 3):
COc1ccc(NC(=O)CSC2=C(Nc3cccc(Br)c3)C(=O)N(Cc3ccccc3)C2=O)cc1Cl    46.2 µM
O=C(/C=C/c1ccccc1)C(Br)C(Br)c1ccccc1 (stereo unspecified)    1.64 µM
Cc1nc(-c2ccccc2)n2nc(NCCCN3CCOCC3)ncc12    > 25 µM

Supply recorded GI50 for `O=C(O)c1ccc(NCn2nc(-c3ccccc3O)oc2=S)cc1` here. 34.1 µM

Supply recorded GI50 for `CCNc1cc(-c2cccc(OC(F)(F)F)c2)nc2ccc(N3CCCC3)cc12` here. 1.57 µM

Supply recorded GI50 for `Cc1nn[n-]n1.N.N.N.N.N.[Cl-].[Co+3]` here. > 100 µM
